Source: patent US12077503B2

Tested on: rice (Oryra sativa)
Test: Test B flooded paddy test
Assay type: in vivo
Conditions: Oryza sativa, 250 g ai/ha, Flood; 0 to 100 scale where 0 is no effect and 100 is complete control; read-out: Rice plant response rating
# pest or weed control at 250 g/ha per record follows
Form entry: value (%) — number only.

The cases that follow already have their pest or weed control at 250 g/ha on record.
CSc1ccccc1NC(=O)C1C(=O)NCC1C=C(C)C (centres unmarked) ... 0
CN1C[C@H](c2cscn2)[C@@H](C(=O)Nc2cccc(F)c2F)C1=O ... 20
Cc1c(F)ccc([C@H]2CNC(=O)[C@@H]2C(=O)Nc2ccccc2F)c1F ... 0
O=C1NC[C@H](c2cccc(C(F)(F)F)c2)C1C(=O)Nc1c(F)cccc1CO (some centres unmarked) ... 0
C/C=C/N1C[C@@H](c2cccc(C(F)(F)F)c2)[C@H](C(=O)Nc2ccccc2F)C1=O (racemic) ... 0

Sample Cc1c(F)cccc1NC(=O)[C@H]1C(=O)N(C)C[C@@H]1c1ccc(F)cc1 — what was its pest or weed control at 250 g/ha?
80

Lookup Cc1cc([C@H]2CN(C)C(=O)[C@@H]2C(=O)Nc2cccc(F)c2F)no1
0

Lookup CC(O)c1ccccc1NC(=O)C1C(=O)N(C)CC1c1cccc(C(F)(F)F)c1 (centres unmarked)
15

###

System: ivy-leaved morning glory (Ipomoea hederacea)
Assay: Test G Post-Emergence Protocol
Type: in vivo
Details: Ipomoea, post-emergence, 312 h, 15.625 g ai/ha, evaluated after 13 days (100=total damage to plant; 0=no damage to plant), read-out: Morningglory, Ivy-leaved damage rating
endpoint-label: pest or weed control at 15.625 g/ha (%)
Form entry: value (%) — number only.

The cases that follow already have their pest or weed control at 15.625 g/ha on record.
CN1C[C@H](c2cccc(C(F)(F)F)c2)[C@@H](C(=O)Nc2cc(O)ccc2F)C1=O (racemic) ... 0
Cc1nnc(NC(=O)[C@@H]2C(=O)N(C)C[C@H]2c2ccc(C(F)(F)F)cc2)nc1C (racemic) ... 0
CON1C[C@H](c2ccc(C(F)(F)F)cc2)[C@@H](C(=O)Nc2cccc(F)c2F)C1=O (racemic) ... 20
Cc1cncc(NC(=O)[C@@H]2C(=O)N(C)C[C@H]2c2ccc(C(F)(F)F)cc2)n1 (racemic) ... 0
CN1C[C@H](c2ccc3c(c2)CCO3)[C@@H](C(=O)Nc2cccc(F)c2F)C1=O (racemic) ... 20
Cc1ccc(NC(=O)[C@H]2C(=O)N(C)C[C@@H]2c2ccc(C(F)(F)F)cc2)nc1 (racemic) ... 0

Please examine the following record next.
Value wanted: pest or weed control at 15.625 g/ha (ivy-leaved morning glory (Ipomoea hederacea)) of entry CN1C[C@H](c2ccc(C(F)(F)F)cc2)[C@@H](C(=O)Nc2cnccc2[S+](C)[O-])C1=O (mixture of isomers)
0

###

System: giant foxtail (Setaria faberii)
Assay: Test A postemergence
Format: in vivo
Details: 125 g ai/ha, postemergence; visual injury after approximately 10 d; 0 to 100 scale (0 no effect, 100 complete control)
# Plant response rating, Foxtail, Giant per record follows
# output: bare number, no unit

The cases that follow already have their Plant response rating, Foxtail, Giant on record.
O=C1NCC(c2cccc(OC(F)(F)C(F)F)c2)C1C(=O)Nc1ccc(F)c(F)c1F (racemic) ... 80
O=C1NCC(c2cccc(OC(F)(F)C(F)F)c2)C1C(=O)Nc1cccc(F)c1F (racemic) ... 80

Sample O=C1NCC(c2ccc(I)cc2)C1C(=O)Nc1cccc(F)c1F (racemic) — what was its Plant response rating, Foxtail, Giant?
70

Lookup O=C1NCC(c2cccc(Br)c2)C1C(=O)Nc1ccc(F)cc1F (racemic)
80

###

Tested on: barnyardgrass (Echinochloa crus-galli)
Test: Test A postemergence
Format: in vivo
Conditions: 500 g ai/ha, postemergence; 0 to 100 scale, 0 no effect, 100 complete control
endpoint-label: Plant response rating, Barnyardgrass
# output: bare number, no unit

The cases that follow already have their Plant response rating, Barnyardgrass on record.
O=C1NCC(c2ccoc2)C1C(=O)Nc1ccccc1C(F)(F)F (racemic) ... 0
Cc1cccc(NC(=O)C2C(=O)NCC2c2ccc(F)c(F)c2)c1F (stereo not drawn) ... 70
CN1CC(c2ccc(C(F)(F)F)cc2F)C(C(=O)Nc2ccccc2F)C1=O (stereo not drawn) ... 90
O=C1NCC(c2cccc(O)c2)C1C(=O)Nc1cccc(F)c1F (racemic) ... 0
CC(C)c1ccc(C2CNC(=O)C2C(=O)Nc2cccc(F)c2F)cc1 (stereo not drawn) ... 70

Please examine the following record next.
Sample CN1CC(c2cccc(OC(F)(F)C(F)F)c2)C(C(=O)Nc2ccc(F)c(F)c2F)C1=O (stereo not drawn) — what was its Plant response rating, Barnyardgrass?
90

###

System: ragweed (common ragweed, Ambrosia elatior)
Experiment: Test A postemergence
Type: in vivo
Settings: Ambrosia artemisiifolia, post-emergence, 240 h, 500 g ai/ha, postemergence; 0 to 100 scale, 0 is no effect, 100 is complete control; read-out: Ragweed plant response rating
endpoint-label: pest or weed control at 500 g/ha
The answer consists of two parts: a number and, after it, its unit.

The cases that follow already have their pest or weed control at 500 g/ha on record.
CN1C[C@H](c2ccc(C(F)(F)F)cc2)[C@@](F)(C(=O)Nc2cccc(F)c2F)C1=O (racemic) ... 30%
O=C1NC[C@H](c2cccc(C(F)(F)F)c2)C1C(=O)Nc1ccccc1CO (stereo partly shown) ... 0%
O=C1NC[C@H](c2csc(C(F)F)c2)[C@H]1C(=O)Nc1ccccc1F ... 20%
CN1C[C@H](c2cscn2)[C@@H](C(=O)Nc2cccc(F)c2F)C1=O ... 0%
Cc1c(F)cccc1NC(=O)[C@H]1C(=O)N(C)C[C@@H]1c1ccc(F)cc1 ... 30%
CN1CC[C@H](c2cccc(C(F)(F)F)c2)[C@@H](C(=O)Nc2cccc(F)c2Cl)C1=O ... 0%

Sample O=C1NC[C@H](c2csc(C(F)F)c2)[C@H]1C(=O)Nc1cccc(F)c1F — what was its pest or weed control at 500 g/ha?
60%

###

# plant injury at 250 g/ha per record follows
Test system: corn (Zea mays)
Experiment: Test G Post-Emergence Protocol
Assay type: in vivo
Settings: Zea mays, post-emergence, 312 h, 250 g ai/ha, evaluated after 13 days, 100=total damage to plant, 0=no damage to plant, read-out: Corn damage rating
The answer consists of two parts: a number and, after it, its unit.

The cases that follow already have their plant injury at 250 g/ha on record.
Cc1cc(C2CN(C)C(=O)C2C(=O)Nc2cccc(F)c2F)cc(C(F)(F)F)c1 (centres unmarked) ... 70%
CN1C[C@H](c2ccc(C(F)(F)F)cc2)[C@@H](C(=O)Nc2cccc3ccsc23)C1=O (racemic) ... 0%
Cc1c(F)cccc1NC(=O)[C@@H]1C(=O)N(C)C[C@H]1c1ccc2nonc2c1 (racemic) ... 60%

Please examine the following record next.
Sample CN1C[C@H](c2ccc(C(F)(F)F)cc2)[C@@H](C(=O)Nc2cnccc2C#N)C1=O (racemic) — what was its plant injury at 250 g/ha?
10%

###

Test system: ryegrass, Italian (Italian ryegrass, Lolium multiflorum)
Test: Test A postemergence
Format: in vivo
Settings: 125 g ai/ha, postemergence; visual rating after approx. 10 d, 0 to 100 scale (0 no effect, 100 complete control)
endpoint-label: Plant response rating, Ryegrass, Italian
# output: bare number, no unit

O=C1NCC(c2cc(C(F)(F)F)ccc2F)C1C(=O)Nc1ccccc1F (stereo not shown) [Compound 593] ... 0
CCc1cc(C2CNC(=O)C2C(=O)Nc2cccc(F)c2F)cs1 (racemic) [Compound 658] ... 30
CN1CC(c2ccc(F)c(F)c2)C(C(=O)Nc2ccccc2C(F)(F)F)C1=O (stereo not shown) [Compound 641] ... 0
COc1c(F)ccc(NC(=O)C2C(=O)NCC2c2cc(F)cc(F)c2)c1F (racemic) [Compound 541] ... 20

Sample O=C1NCC(c2cccc(C(F)(F)F)c2F)C1C(=O)Nc1ccccc1F (stereo not shown) [Compound 590] — what was its Plant response rating, Ryegrass, Italian?
30

Lookup CN1CC(c2cc(F)cc(F)c2)C(C(=O)Nc2cccc3c2CCCC3)C1=O (stereo not shown) [Compound 660]
0

Lookup O=C1NCC(c2ccc3c(c2)OC(F)(F)O3)C1C(=O)Nc1cccc(F)c1F (stereo not shown) [Compound 635]
0

Lookup CN1CC(c2ccc(Br)cc2)C(C(=O)Nc2ccc(F)cc2F)C1=O (stereo not shown) [Compound 566]
30

Lookup O=C1NCC(c2cc(F)ccc2F)C1C(=O)Nc1ccc(F)cc1F (racemic) [Compound 545]
0

Lookup CC(C)Oc1cccc(C2CNC(=O)C2C(=O)Nc2ccc(F)c(F)c2F)c1 (stereo not shown) [Compound 554]
40

###

Test system: barnyardgrass (Echinochloa crus-galli)
Experiment: Test A postemergence
Format: in vivo
Details: Echinochloa crus-galli, post-emergence, 240 h, 125 g ai/ha, Postemergence; visual injury after approximately 10 d; 0 to 100 scale where 0 is no effect and 100 is complete control; read-out: Plant response rating, Barnyardgrass
# pest or weed control at 125 g/ha per record follows
Form entry: value (%) — number only.

CN1CC[C@H](c2ccc(OC(F)(F)F)cc2)[C@@H](C(=O)Nc2ccc(F)c(F)c2F)C1=O ... 60
COc1ccc(CN2CC[C@H](c3ccc(F)cc3)[C@@H](C(=O)Nc3cccc(F)c3F)C2=O)cc1 ... 0
COc1ccc([C@H]2CN(C)C(=O)[C@@H]2C(=O)Nc2cccc(F)c2F)cc1C(F)(F)F ... 80
Cc1ccc([C@H]2CN(C)C(=O)[C@@H]2C(=O)Nc2cccc(F)c2F)cc1C ... 90

Sample CN1CC[C@H](c2ccc(F)cc2)[C@@H](C(=O)Nc2ccccc2F)C1=O — what was its pest or weed control at 125 g/ha?
0

Lookup O=C1NC[C@H](c2cc(C(F)(F)F)cs2)[C@H]1C(=O)Nc1ccccc1F
50

Lookup C=CCOc1cccc(C2CN(C)C(=O)C2C(=O)Nc2cccc(F)c2F)c1 (stereo not drawn)
90

Lookup CC(C)=CC1CNC(=O)C1C(=O)Nc1ccccc1F (stereo not drawn)
0

Lookup O=C1NC[C@H](c2csc(C(F)(F)F)c2)[C@H]1C(=O)Nc1cccc(F)c1F
80
